- Applied conditions: in ethyl acetate, 306.3 K
Measurement kind: solubility (mole fraction)

Smi: CC[C@H](C)C(=O)O[C@H]1C[C@@H](C)C=C2C=C[C@H](C)[C@H](CC[C@@H]3C[C@@H](O)CC(=O)O3)[C@H]21
Observed value: 0.0087

====

- Applied conditions: in tert-butyl acetate, 288.3 K
Measurement kind: solubility (mole fraction)

Smi: CC[C@H](C)C(=O)O[C@H]1C[C@@H](C)C=C2C=C[C@H](C)[C@H](CC[C@@H]3C[C@@H](O)CC(=O)O3)[C@H]21
Measurement kind: solubility (mole fraction)
Observed value: 0.00314

====

- Applied conditions: in tert-butyl acetate, 312.2 K

Smi: CC[C@H](C)C(=O)O[C@H]1C[C@@H](C)C=C2C=C[C@H](C)[C@H](CC[C@@H]3C[C@@H](O)CC(=O)O3)[C@H]21
solubility (mole fraction): 0.00693

====

- Applied conditions: in isopropyl acetate, 288.3 K
Measurement kind: solubility (mole fraction)

Smi: CC[C@H](C)C(=O)O[C@H]1C[C@@H](C)C=C2C=C[C@H](C)[C@H](CC[C@@H]3C[C@@H](O)CC(=O)O3)[C@H]21
Observed value: 0.00372

====

- Applied conditions: in methyl acetate, 285.1 K

Smi: CC[C@H](C)C(=O)O[C@H]1C[C@@H](C)C=C2C=C[C@H](C)[C@H](CC[C@@H]3C[C@@H](O)CC(=O)O3)[C@H]21
solubility (mole fraction): 0.00309

====

- Applied conditions: in n-propyl acetate, 300.3 K
Measurement kind: solubility (mole fraction)

Smi: CC[C@H](C)C(=O)O[C@H]1C[C@@H](C)C=C2C=C[C@H](C)[C@H](CC[C@@H]3C[C@@H](O)CC(=O)O3)[C@H]21
Observed value: 0.00658

====

- Applied conditions: in acetone, 306.3 K

Smi: CC[C@H](C)C(=O)O[C@H]1C[C@@H](C)C=C2C=C[C@H](C)[C@H](CC[C@@H]3C[C@@H](O)CC(=O)O3)[C@H]21
solubility (mole fraction): 0.0183

====

- Applied conditions: in acetone, 297.2 K

Smi: CC[C@H](C)C(=O)O[C@H]1C[C@@H](C)C=C2C=C[C@H](C)[C@H](CC[C@@H]3C[C@@H](O)CC(=O)O3)[C@H]21
solubility (mole fraction): 0.013

====

- Applied conditions: in 2-butanone, 297.2 K

Smi: CC[C@H](C)C(=O)O[C@H]1C[C@@H](C)C=C2C=C[C@H](C)[C@H](CC[C@@H]3C[C@@H](O)CC(=O)O3)[C@H]21
solubility (mole fraction): 0.0115

====

- Applied conditions: in acetone, 300.3 K
Measurement kind: solubility (mole fraction)

Smi: CC[C@H](C)C(=O)O[C@H]1C[C@@H](C)C=C2C=C[C@H](C)[C@H](CC[C@@H]3C[C@@H](O)CC(=O)O3)[C@H]21
Observed value: 0.0146

====

- Applied conditions: in n-propyl acetate, 291.2 K
Measurement kind: solubility (mole fraction)

Smi: CC[C@H](C)C(=O)O[C@H]1C[C@@H](C)C=C2C=C[C@H](C)[C@H](CC[C@@H]3C[C@@H](O)CC(=O)O3)[C@H]21
Measurement kind: solubility (mole fraction)
Observed value: 0.00481

====

- Applied conditions: in tert-butyl acetate, 309.4 K

Smi: CC[C@H](C)C(=O)O[C@H]1C[C@@H](C)C=C2C=C[C@H](C)[C@H](CC[C@@H]3C[C@@H](O)CC(=O)O3)[C@H]21
solubility (mole fraction): 0.00638
